Parameter GRinf: see the listing below.
- Test system: Mycobacterium tuberculosis Erdman (autoluminescent)
- experiment summary: GRinf, maximum normalised growth rate inhibition (three-drug combination) (unitless (-1 to 1)); higher = less effect (negative = killing)
- condition details: in vitro model: cholesterol 0.05 mM; time point: terminal (~4-5 doublings, model-specific)
// no unit string in output, number only

Answered cases to consult:
compound: CC[C@@H](CO)NCCN[C@@H](CC)CO [ethambutol] + COc1c(N2C[C@@H]3CCCN[C@@H]3C2)c(F)cc2c(=O)c(C(=O)O)cn(C3CC3)c12 [moxifloxacin] + O=[N+]([O-])c1cn2c(n1)OC[C@@H](OCc1ccc(OC(F)(F)F)cc1)C2 [pretomanid]
GRinf: -0.457

compound: CC[C@@H](CO)NCCN[C@@H](CC)CO [ethambutol] + NNC(=O)c1ccncc1 [isoniazid] + COc1c(N2C[C@@H]3CCCN[C@@H]3C2)c(F)cc2c(=O)c(C(=O)O)cn(C3CC3)c12 [moxifloxacin]
GRinf: 0.0114

compound: COc1nc2ccc(Br)cc2cc1[C@@H](c1ccccc1)[C@@](O)(CCN(C)C)c1cccc2ccccc12 [bedaquiline] + CC[C@@H](CO)NCCN[C@@H](CC)CO [ethambutol] + COc1c(N2C[C@@H]3CCCN[C@@H]3C2)c(F)cc2c(=O)c(C(=O)O)cn(C3CC3)c12 [moxifloxacin]
GRinf: -0.132

Need GRinf of CC(=O)NC[C@H]1CN(c2ccc(N3CCOCC3)c(F)c2)C(=O)O1 [linezolid] + COc1c(N2C[C@@H]3CCCN[C@@H]3C2)c(F)cc2c(=O)c(C(=O)O)cn(C3CC3)c12 [moxifloxacin] + NC(=O)c1cnccn1 [pyrazinamide] , thanks.
-0.426

FYI, the data here is from the supplement of paper PMC8617591.
